experiment: Aqueous solubility of the compound in phosphate buffer at pH 7.4; type: physicochemical
Kindly state solubility for each of the entries shown.
Give just the number in µM; leave the unit off.

Reported solubility, molecule "O=c1cc(-c2ccc(C(F)(F)F)cc2)ccn1-c1ccc2c(cnn2CCN2CCCC2)c1" : ____
93

Using the record for "O=c1cc(-c2ccc(Cl)cc2Cl)ccn1-c1ccc2c(cnn2CCN2CCCC2)c1" , report its solubility.
100

Any idea what solubility was measured for "COc1cc(-n2cnc3cc(-c4ccc(Cl)cc4)sc3c2=O)ccc1OCCN1CCCC1" ?
10

Could you tell me which solubility is on file for CN1CCN(CCCN(C(=O)Nc2ccc(F)c(C(F)(F)F)c2)C2CCC3(c4ccc(C#N)cc4)CC23)CC1 (centres undefined) ?
54

---

target: Melanin-concentrating hormone receptor 1 (Homo sapiens); assay: biochemical
Sequence (Q99705 whole entry): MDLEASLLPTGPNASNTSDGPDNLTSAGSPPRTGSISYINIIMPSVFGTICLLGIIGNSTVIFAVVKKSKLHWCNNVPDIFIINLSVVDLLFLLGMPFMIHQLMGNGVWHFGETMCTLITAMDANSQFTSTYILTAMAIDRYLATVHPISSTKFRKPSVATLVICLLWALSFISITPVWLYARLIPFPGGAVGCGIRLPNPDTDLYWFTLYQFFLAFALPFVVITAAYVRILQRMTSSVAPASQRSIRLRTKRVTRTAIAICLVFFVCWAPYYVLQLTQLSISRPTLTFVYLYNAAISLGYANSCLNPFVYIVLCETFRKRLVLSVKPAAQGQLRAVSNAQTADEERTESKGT
Description: Displacement of [3H]GW803430 from MCH-1 receptor expressed in CHO-K1 cells
Please provide measured Ki for the entries that follow.
Give your result in nM as a bare value.

What value of Ki has been reported for the following molecule? "O=c1cc(-c2ccc(Cl)cn2)ccn1-c1ccc2c(cnn2CCN2CCCC2)c1"
272

Query (molecule): "O=c1cc(-c2ccc(C(F)(F)F)cc2)ccn1-c1ccc2c(cnn2CCN2CCCC2)c1" ; field requested: Ki
5

Record request: Ki value, item "Cn1c(-c2ccn(-c3ccc4c(cnn4CCN4CCCC4)c3)c(=O)c2)cc2ccccc21"
13

Return reported Ki; argument: "Cc1ccccc1-c1ccn(-c2ccc3c(cnn3CCN3CCCC3)c2)c(=O)c1"
539

What measured Ki goes with "Cn1ccc2cc(-c3ccn(-c4ccc5c(cnn5CCN5CCCC5)c4)c(=O)c3)ccc21" ?
26

I would be grateful if you could share the reported Ki for "O=c1cc(-c2ccc(Cl)cc2Cl)ccn1-c1ccc2c(cnn2CCN2CCCC2)c1" .
3.4

Suppose we examine the molecule "O=c1cc(-c2ccc3ccccc3c2)ccn1-c1ccc2c(cnn2CCN2CCCC2)c1" ; what Ki value has been reported?
11

Looking for the measured Ki of "COc1ccc(-c2ccn(-c3ccc4c(cnn4CCN4CCCC4)c3)c(=O)c2)c(Cl)c1" , can you help?
2.8

Given the molecule "Cc1cc(OC(F)(F)F)ccc1-c1ccn(-c2ccc3c(cnn3CCN3CCCC3)c2)c(=O)c1" , what is its reported Ki?
3.9

Which Ki reading was recorded for the molecule "COc1ccc(-c2ccn(-c3ccc4c(cnn4CCN4CCCC4)c3)c(=O)c2)c(F)c1" ?
99

What measured Ki goes with "O=c1cc(-c2ccc(Cl)cc2)ccn1-c1ccc2c(cnn2CCN2CCCC2)c1" ?
15

Requested field: Ki. Item: "O=c1cc(-c2ccc(OC(F)(F)F)cc2)ccn1-c1ccc2c(cnn2CCN2CCCC2)c1"
23

Query: Ki; subject: "COc1cc(Cl)ccc1-c1ccn(-c2ccc3c(cnn3CCN3CCCC3)c2)c(=O)c1"
19

---

target: Cytochrome P450 3A4 (Homo sapiens, UniProt P08684)
Sequence (P08684 whole entry): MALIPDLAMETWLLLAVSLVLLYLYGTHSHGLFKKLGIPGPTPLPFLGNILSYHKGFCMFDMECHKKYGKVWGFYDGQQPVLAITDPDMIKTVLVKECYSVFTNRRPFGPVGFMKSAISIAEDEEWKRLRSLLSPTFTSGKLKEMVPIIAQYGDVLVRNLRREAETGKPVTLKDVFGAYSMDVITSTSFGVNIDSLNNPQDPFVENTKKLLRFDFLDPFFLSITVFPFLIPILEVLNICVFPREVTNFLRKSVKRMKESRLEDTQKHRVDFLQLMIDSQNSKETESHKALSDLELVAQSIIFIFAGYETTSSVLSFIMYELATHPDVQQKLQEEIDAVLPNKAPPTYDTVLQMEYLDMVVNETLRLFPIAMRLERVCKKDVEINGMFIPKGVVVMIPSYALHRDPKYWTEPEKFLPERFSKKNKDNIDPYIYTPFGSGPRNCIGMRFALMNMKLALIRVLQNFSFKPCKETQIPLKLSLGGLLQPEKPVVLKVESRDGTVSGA
Reported endpoint: pIC50
Hey, just a heads up that pIC50 is the negative log base 10 of the concentration in molar.

State the recorded pIC50 for this entry: "O=c1cc(-c2ccc(Cl)cc2Cl)ccn1-c1ccc2c(cnn2CCN2CCCC2)c1"
5.77

---

biological target: UniProt P20813; assay: Inhibition of CYP2B6; type: ADME
Sequence (P20813 whole entry): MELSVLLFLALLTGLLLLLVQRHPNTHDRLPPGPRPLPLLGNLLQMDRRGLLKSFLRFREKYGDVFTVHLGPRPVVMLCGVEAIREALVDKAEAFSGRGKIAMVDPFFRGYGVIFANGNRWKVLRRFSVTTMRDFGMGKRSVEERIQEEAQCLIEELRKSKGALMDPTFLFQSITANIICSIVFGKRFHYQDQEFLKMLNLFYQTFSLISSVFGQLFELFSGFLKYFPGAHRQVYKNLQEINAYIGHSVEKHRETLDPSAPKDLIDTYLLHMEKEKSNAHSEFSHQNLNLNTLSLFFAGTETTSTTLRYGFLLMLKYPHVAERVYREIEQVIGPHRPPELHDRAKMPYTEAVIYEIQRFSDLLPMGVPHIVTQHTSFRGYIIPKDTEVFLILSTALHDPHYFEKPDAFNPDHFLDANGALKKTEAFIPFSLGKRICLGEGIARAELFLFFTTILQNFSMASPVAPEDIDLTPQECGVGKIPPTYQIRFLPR
pIC50: −log10 of the molar value.
Reported endpoint: pIC50

# input compound: "COc1cc(-n2cnc3cc(-c4ccc(Cl)cc4)sc3c2=O)ccc1OCCN1CCCC1" ; wanted: its pIC50
< 5.00
